Below, each entry is listed alongside its reported log10(Kd).
Target: T1, human serum albumin (human, UniProt P02768 25-609)
T1 construct: also called HSA
Assay: SPR, single cycle kinetics, pH 7.4
Kindly note that the scale is log10 and the underlying Kd is in nM.

Record excerpt, results attached:
>  <Binder>
R11-H6 (VHH) VHH: QVQLVESGGGLVQPGGSLRLSCAGPGFLLRSNTMGWYRQAPGKERELVAFIRPSGLTNYNDAVQGRFTISRDNAKNTVYLQMNSLRAEDTAVYYCHTRPPFQRDSWGQGTLVTVSS

>  <log10(Kd)>
2.40

$$$$
>  <Binder>
M79-H4 (VHH) VHH: QVQLVESGGGLVQPGGSLRLSCAASGSTFSSSSVGWYRQAPGQQRELVAAITSGGSTNTADSVKGRFTISRDNSKNTLYLQMNSLRAEDTAVYYCNVAGRNWVPISRYSPGPYWGQGTLVTVSS

>  <log10(Kd)>
1.77

$$$$
>  <Binder>
R11-H5 (VHH) VHH: QVQLVESGGGLVQPGGSLRLSCAGPGFLLRSNTMGWYRQAPGKERELVAFIRPSGLTNYNDAVQGRFTISRDNSKNTLYLQMNSLRAEDTAVYYCHTRPPFQRDSWGQGTLVTVSS

>  <log10(Kd)>
2.49

$$$$
>  <Binder>
R28 sdAb (VHH, also called R28 VHH) VHH: QVQLVESGGGLVQAGGSLRLSCVASGRTFIAYAMGWFRQAPGKEREFVAAITNFAGGTTYYADSVKGRFTISRDNAKTTVYLQMNSLKPEDTALYYCAADRSAQTMRQVRPVLPYWGQGTQVTVSS

>  <log10(Kd)>
1.08

$$$$

Prompt line: Can you share its log10(Kd)? I mean this binder: Rh34-H1 (VHH) VHH: EVQLVESGGGLVQPGGSLRLSCAASGRTISLYAVGWFRQAPGKGLEFVSAISWTDSSTYYADSVKGRFTISRDNSKNTLYLQMNSLRAEDTAVYYCAADVSIRGLQKYEYDYWGQGTLVTVSS
Response line: 2.92

Prompt line: Can you share its log10(Kd)? I mean this binder: H18-H5 (VHH) VHH: QVQLVESGGGLVQPGGSLRLSCAASGSIESINRMAWYRQAPGQQREFVARISKGGSTNYPDSVKGRFTISRDNAKNTVYLQMNSLRAEDTAVYYCAAGPVWEQFWGQGTLVTVSS
Response line: 1.77

Prompt line: Can you share its log10(Kd)? I mean this binder: R28-H1 (VHH) VHH: EVQLVESGGGLVQPGGSLRLSCAASGRTFIAYAMGWFRQAPGKGLEFVSAITNFAGGTTYYADSVKGRFTISRDNSKNTLYLQMNSLRAEDTAVYYCAADRSAQTMRQVRPVLPYWGQGTLVTVSS
Response line: 2.21

Prompt line: Can you share its log10(Kd)? I mean this binder: Rh34 sdAb (VHH, also called Rh34 VHH) VHH: QVKLEESGGGLVQAGGSLRLSCAASGRTISLYAVGWFRRAPGKEREFVAAISWTDSSTYYADSVKGRFTISRDNAKNTVYLGMNSLNPEDTAVYYCAADVSIRGLQKYEYDYWGQGTQVTVSS
Response line: 2.46

Prompt line: Can you share its log10(Kd)? I mean this binder: R11 sdAb (VHH, also called R11 VHH) VHH: QVKLEESGGGLVQAGGSLRLSCVGPGFLLRSNTMGWYRQAPGKERELVAFIRPSGLTNYNDAVQGRFTISRDNAKNTVYLQMNALKPEDTAVYYCHTRPPFQRDSWGQGTQVTVSS
Response line: 1.97
